Target: recombinant poly(ADP-ribose) polymerase 1 (PARP1) (Homo sapiens, UniProt P09874)
Sequence (P09874 whole entry): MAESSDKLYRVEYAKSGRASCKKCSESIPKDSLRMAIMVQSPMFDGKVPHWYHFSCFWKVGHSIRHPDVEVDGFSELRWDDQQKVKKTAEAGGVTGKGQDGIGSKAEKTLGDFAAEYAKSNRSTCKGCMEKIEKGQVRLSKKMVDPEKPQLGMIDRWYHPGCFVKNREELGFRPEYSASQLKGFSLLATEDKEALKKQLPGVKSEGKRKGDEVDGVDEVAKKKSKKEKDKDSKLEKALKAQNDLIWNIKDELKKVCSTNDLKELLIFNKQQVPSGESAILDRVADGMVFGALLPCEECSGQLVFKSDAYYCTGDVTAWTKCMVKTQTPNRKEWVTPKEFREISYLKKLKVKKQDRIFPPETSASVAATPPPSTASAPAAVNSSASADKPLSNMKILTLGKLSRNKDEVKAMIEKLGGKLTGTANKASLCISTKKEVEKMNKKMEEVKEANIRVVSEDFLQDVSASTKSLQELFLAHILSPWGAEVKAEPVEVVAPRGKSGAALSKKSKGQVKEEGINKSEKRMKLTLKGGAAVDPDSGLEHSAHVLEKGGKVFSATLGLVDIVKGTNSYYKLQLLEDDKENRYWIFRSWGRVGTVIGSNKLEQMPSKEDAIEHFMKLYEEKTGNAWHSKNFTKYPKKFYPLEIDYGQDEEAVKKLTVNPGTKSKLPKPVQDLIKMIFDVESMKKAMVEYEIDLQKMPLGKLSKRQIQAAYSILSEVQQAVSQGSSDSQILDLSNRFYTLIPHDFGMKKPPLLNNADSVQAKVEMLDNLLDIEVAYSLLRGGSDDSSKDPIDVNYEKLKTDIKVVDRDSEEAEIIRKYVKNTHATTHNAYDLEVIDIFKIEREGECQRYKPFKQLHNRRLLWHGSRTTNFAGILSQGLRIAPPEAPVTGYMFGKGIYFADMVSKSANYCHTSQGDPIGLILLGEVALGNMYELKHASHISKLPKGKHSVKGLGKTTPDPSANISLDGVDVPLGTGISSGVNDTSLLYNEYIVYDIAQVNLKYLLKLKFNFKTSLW
Assay: biochemical
Conditions: inhibition of PARP1 enzyme activity, chemiluminescence
Category | rule: reported IC50 within range, see A = under 1 nM, B = from 1 nM up to 2 nM, C = 2 nM and over

compound: CNC(=O)c1ccc(N2CCN(Cc3cc(F)c4c(c3)[nH]c(=O)c3c(C)cnn34)CC2)c(F)n1 [Example 76]
class name: C
//
compound: CNC(=O)c1ccc(N2CCN(Cc3ccc4c(c3)[nH]c(=O)c3c(C)ccn34)CC2)c(C)n1 [Example 56]
class name: C
//
compound: CNC(=O)c1ccc(N2CCN(Cc3ccc4c(c3)[nH]c(=O)c3cc(Cl)nn34)CC2)c(C)n1 [Example 100]
class name: A
//
compound: CNC(=O)c1ccc(N2CCN(Cc3cc(F)c4c(c3)[nH]c(=O)n3ccnc43)CC2)c(F)n1 [Example 53]
class name: C
//
compound: CNC(=O)c1ccc(N2CCN(Cc3ccc4c([nH]c(=O)c5cc(Cl)nn54)c3F)CC2)c(C)n1 [Example 103]
class name: A
//
compound: CNC(=O)c1ccc(N2CCN(Cc3ccc4c(c3)[nH]c(=O)c3ccnn34)CC2)c(C)n1 [Example 28]
class name: A
//
compound: CNC(=O)c1ccc(N2CCN(Cc3ccc4c([nH]c(=O)c5ccnn54)c3C)CC2)c(F)n1 [Example 133]
class name: B
//
compound: Cc1nc(C(=O)NC2CC2)ccc1N1CCN(Cc2cc(F)c3c(c2)[nH]c(=O)c2cccn23)CC1 [Example 66]
class name: B
//
compound: CNC(=O)c1ccc(N2CCN(Cc3cc(F)c4c(c3)[nH]c(=O)c3c(C)cnn34)CC2)c(C)n1 [Example 78]
class name: B
//
compound: CNC(=O)c1ccc(N2CCN(Cc3ccc4c(c3)[nH]c(=O)c3cc(C)nn34)CC2)c(C)n1 [Example 57]
class name: B
//
compound: CNC(=O)c1ccc(N2CCN(Cc3ccc4c5c(c(=O)[nH]c4c3)COC5)CC2)c(F)n1 [Example 2]
class name: B
//
compound: CNC(=O)c1ccc(N2CCN(Cc3ccc4c(c3)[nH]c(=O)c3cc(C)nn34)CC2)c(F)n1 [Example 69]
class name: C
//
compound: CNC(=O)c1ccc(N2CCN(Cc3cc(C)c4c(c3)[nH]c(=O)c3ccnn34)CC2)c(C)n1 [Example 102]
class name: C
//
compound: CNC(=O)c1ccc(N2CCN(Cc3ccc4c([nH]c(=O)c5cc(C)nn54)c3F)CC2)c(F)n1 [Example 115]
class name: B

----------
Biological target: recombinant poly(ADP-ribose) polymerase 2 (PARP2) (Homo sapiens)
Sequence (Q9UGN5 whole entry): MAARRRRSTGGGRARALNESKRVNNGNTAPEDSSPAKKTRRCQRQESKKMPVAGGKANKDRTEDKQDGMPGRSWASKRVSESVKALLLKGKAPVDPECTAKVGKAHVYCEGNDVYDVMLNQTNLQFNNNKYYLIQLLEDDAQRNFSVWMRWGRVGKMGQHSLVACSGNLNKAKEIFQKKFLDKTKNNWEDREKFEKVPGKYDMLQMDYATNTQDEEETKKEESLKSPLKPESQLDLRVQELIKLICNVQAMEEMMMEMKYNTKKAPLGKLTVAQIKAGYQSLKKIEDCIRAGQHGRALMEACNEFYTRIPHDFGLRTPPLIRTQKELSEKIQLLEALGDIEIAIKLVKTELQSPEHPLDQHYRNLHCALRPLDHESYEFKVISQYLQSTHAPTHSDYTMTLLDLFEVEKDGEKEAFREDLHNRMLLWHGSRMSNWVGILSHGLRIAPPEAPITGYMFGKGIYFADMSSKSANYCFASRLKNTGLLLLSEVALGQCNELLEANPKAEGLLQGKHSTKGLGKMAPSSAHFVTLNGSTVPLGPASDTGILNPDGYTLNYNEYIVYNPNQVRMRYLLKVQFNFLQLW
Assay: biochemical
Conditions: inhibition of PARP2 enzyme activity, chemiluminescence
Quick reference for IC50 among some molecules

compound structure string: CNC(=O)c1ccc(N2CCN(Cc3cc(F)c4c(c3)[nH]c(=O)c3cscc34)CC2)c(C)n1
target of assay: recombinant poly(ADP-ribose) polymerase 2 (PARP2) (Homo sapiens)
IC50: 13.3 nM
--
compound structure string: CNC(=O)c1ccc(N2CCN(Cc3ccc4c([nH]c(=O)c5ccnn54)c3C)CC2)c(C)n1
target of assay: recombinant poly(ADP-ribose) polymerase 2 (PARP2) (Homo sapiens)
IC50: 369 nM
--
compound structure string: CNC(=O)c1ccc(N2CCN(Cc3cc(F)c4c(c3)[nH]c(=O)c3cc(C)nn34)CC2)c(Cl)n1
target of assay: recombinant poly(ADP-ribose) polymerase 2 (PARP2) (Homo sapiens)
IC50: 186 nM
--
compound structure string: CNC(=O)c1ccc(N2CCN(Cc3ccc4c(c3)[nH]c(=O)n3cncc43)CC2)c(C)n1
target of assay: recombinant poly(ADP-ribose) polymerase 2 (PARP2) (Homo sapiens)
IC50: 2590 nM
--
compound structure string: CNC(=O)c1ccc(N2CCN(Cc3ccc4c(c3)[nH]c(=O)c3cncn34)CC2)c(F)n1
target of assay: recombinant poly(ADP-ribose) polymerase 2 (PARP2) (Homo sapiens)
IC50: 59.9 nM
--
compound structure string: CNC(=O)c1ccc(N2CCN(Cc3ccc4c(c3)[nH]c(=O)c3cccn34)CC2)c(C)n1
target of assay: recombinant poly(ADP-ribose) polymerase 2 (PARP2) (Homo sapiens)
IC50: 31.5 nM
--
compound structure string: CNC(=O)c1ccc(N2CCN(Cc3cc(F)c4c5c(c(=O)[nH]c4c3)CCC5)CC2)c(F)n1
target of assay: recombinant poly(ADP-ribose) polymerase 2 (PARP2) (Homo sapiens)
IC50: 32 nM
--
compound structure string: CNC(=O)c1ccc(N2CCN(Cc3ccc4c(c3)[nH]c(=O)c3ccc(C)n34)CC2)c(C)n1
target of assay: recombinant poly(ADP-ribose) polymerase 2 (PARP2) (Homo sapiens)
IC50: 12.7 nM
--
compound structure string: CNC(=O)c1ccc(N2CCN(Cc3cc(F)c4c(c3)[nH]c(=O)c3sccc34)CC2)c(C)n1
target of assay: recombinant poly(ADP-ribose) polymerase 2 (PARP2) (Homo sapiens)
IC50: 16.9 nM
--
compound structure string: CNC(=O)c1ccc(N2CCN(Cc3ccc4c(c3)[nH]c(=O)c3cscc34)CC2)c(C)n1
target of assay: recombinant poly(ADP-ribose) polymerase 2 (PARP2) (Homo sapiens)
IC50: 18.3 nM
